- System: JJN-3 (NIK translocated) multiple myeloma cells
- assay_procedure: Antiproliferative activity on JJN-3 multiple myeloma cells (CellTiter-Glo, 96 hr), Biological Assay C
- Type: cell-based, human
- run_conditions: Homo sapiens, JJN-3, 96 h, JJN-3 (NIK translocated) cells, averaged values, read-out: JJN-3 Proliferation inhibition (IC50 (nM))
- Description: Determination of Antiproliferative Activity on JJN-3 (NIK Translocated) and KMS12-BM (NIK WT) Multiple Myeloma Cells All compounds tested were dissolved in DMSO and further dilutions were made in culture medium. Final DMSO concentration was 0.3% (v/v) in cell proliferation assays. Viability was assessed using CellTiter-Glo cell viability assay kit (Promega). […] Luminescence was measured on a HTS Topcount (Perkin Elmer). […]
observed_property: IC50 (nM)

{"columns": ["molecule", "value_units", "value_reported"],
 "data": [
  ["[2H]C([2H])([2H])N1CCN(C(=O)c2cc(C#N)cc(Nc3nccc(-c4cc(C#N)c5c(c4)[C@@](C)(CO)CN5)n3)c2C)CC1", "nM", 14],
  ["CCCCCc1cc(S(C)(=O)=O)ccc1Nc1nccc(-c2cc(C#N)c3c(c2)[C@@](C)(CO)CN3)n1", "nM", 115],
  ["Cc1c(CN2CC(C)OC(C)C2)cc(C#N)cc1Nc1nccc(-c2cc(C#N)c3c(c2)[C@@](C)(CO)CN3)n1 (stereo partly shown)", "nM", 17],
  ["[2H]C([2H])(O)[C@@]1(C)CNc2c(C#N)cc(-c3ccnc(Nc4cc(C#N)ccc4C)n3)cc21", "nM", 269],
  ["Cc1c(CO)cc(C#N)cc1Nc1nccc(-c2cc(C#N)c3c(c2)[C@@](C)(CO)CN3)n1", "nM", 22],
  ["CC1(CO)CNc2c(C#N)cc(-c3ccnc(Nc4cc(Cl)ccc4C(F)(F)F)n3)cc21 (stereo not shown)", "nM", 1620],
  ["Cc1ccc(CO)cc1Nc1nccc(-c2cc(C#N)c3c(c2)C(C)(CO)CN3)n1 (stereo not shown)", "nM", 199],
  ["COc1cc(C(=O)N2CC(O)C2)c(Cl)cc1Nc1nccc(-c2cc(C#N)c3c(c2)C(C)(C)CN3)n1", "nM", 193],
  ["COc1cc(C(=O)NC2CCOCC2)c(Cl)cc1Nc1nccc(-c2cc(C#N)c3c(c2)C(C)(C)CN3)n1", "nM", 39],
  ["CN(C)C(=O)Cc1ccc(Cl)cc1Nc1nccc(-c2cc(C#N)c3c(c2)C(C)(CO)CN3)n1 (stereo not shown)", "nM", 275],
  ["CN1CCC(Oc2ccc(Cl)cc2Nc2nccc(-c3cc(C#N)c4c(c3)C(C)(C)CN4)n2)CC1", "nM", 124],
  ["COCCOc1ccc(Cl)cc1Nc1nccc(-c2cc(C#N)c3c(c2)C(C)(C)CN3)n1", "nM", 1410],
  ["Cc1ccc(C(=O)N(C)C)cc1Nc1nccc(-c2cc(C#N)c3c(c2)[C@@](C)(CO)CN3)n1", "nM", 4790],
  ["COc1cc(N2CCN(C(C)C)CC2)c(Cl)cc1Nc1nccc(-c2cc(C#N)c3c(c2)C(C)(C)CN3)n1", "nM", 83],
  ["COc1cc(C(=O)NC2CNCC2O)c(Cl)cc1Nc1nccc(-c2cc(C#N)c3c(c2)C(C)(C)CN3)n1 (mixture of isomers)", "nM", 525]
]}
